reportedMetric: melting point

>>> measured("Cc1ccc(-c2cc(F)c(F)cc2-c2ccc(S(N)(=O)=O)cc2)cn1")
"> 96 °C (dec.)"
>>> measured("NS(=O)(=O)c1ccc(-c2cc(F)c(F)cc2-c2ccc3c(c2)OCO3)cc1")
"142 to 143 °C"
>>> measured("Cc1ccc(-c2cc(F)c(F)cc2-c2ccc(S(N)(=O)=O)cc2)cc1C")
"132.8 to 133.9 °C"
>>> measured("COc1ccc(-c2cc(F)c(F)cc2-c2ccc(S(N)(=O)=O)cc2)cc1Cl")
"70 °C (dec.)"

// moving on: another record for melting point
Q: Recorded melting point of "Cc1cc(-c2cc(F)c(F)cc2-c2ccc(S(N)(=O)=O)cc2)ccc1F" , please.
A: 151.5 to 152 °C

###

Quick reference for melting point among some compounds

Example cases with answers are listed next.
>>> measured("COc1ccc(-c2ccccc2-c2ccc(S(C)(=O)=O)cc2)cc1Cl [Example 5]")
"161.5 to 162.3 °C"
>>> measured("CS(=O)(=O)c1ccc(-c2ccccc2-c2ccc(Cl)cc2)cc1 [Example 8]")
"180.2 to 180.6 °C"
>>> measured("Cc1ccc(-c2cc(F)c(F)cc2-c2ccc(S(C)(=O)=O)cc2)cc1C [Example 33]")
"125.1 to 125.8 °C"

Q: Recorded melting point of COc1ccc(-c2cc(F)c(F)cc2-c2ccc(S(C)(=O)=O)cc2)cc1F [Example 19] , please.
A: 159.2 to 159.7 °C

Q: Recorded melting point of COc1ccc(-c2cc(F)c(F)cc2-c2ccc(S(N)(=O)=O)cc2)cc1C [Example 39] , please.
A: 120 to 121.8 °C

Q: Recorded melting point of Cc1ccc(-c2cc(F)c(F)cc2-c2ccc(S(N)(=O)=O)cc2)cc1 [Example 25] , please.
A: 103 to 104 °C

Q: Recorded melting point of Cc1cc(-c2cc(F)c(F)cc2-c2ccc(S(C)(=O)=O)cc2)ccc1Cl [Example 32] , please.
A: 151.5 to 152.2 °C

###

reportedMetric: melting point

Example cases with answers are listed next.
>>> measured("Cc1ccc(-c2cc(F)c(F)cc2-c2ccc(S(N)(=O)=O)cc2)cc1Cl [Example 29]")
"139 to 140 °C"
>>> measured("COc1ccc(-c2ccccc2-c2ccc(S(C)(=O)=O)cc2)cc1F [Example 4]")
"136.2 to 136.6 °C"
>>> measured("Cc1cc(-c2cc(F)c(F)cc2-c2ccc(S(C)(=O)=O)cc2)ccc1F [Example 31]")
"167.2 to 167.5 °C"

Q: Recorded melting point of COc1ccc(-c2ccccc2-c2ccc(S(N)(=O)=O)cc2)cc1Cl [Example 7] , please.
A: 179.5 to 180.2 °C

Q: Recorded melting point of COc1c(Cl)cc(-c2cc(F)c(F)cc2-c2ccc(S(N)(=O)=O)cc2)cc1Cl [Example 38] , please.
A: 145.5 to 146 °C

Q: Recorded melting point of Cc1cc(-c2cc(F)c(F)cc2-c2ccc(S(N)(=O)=O)cc2)ccc1Cl [Example 36] , please.
A: 141.5 to 142.8 °C

Q: Recorded melting point of Cc1ccc(-c2cc(F)c(F)cc2-c2ccc(S(C)(=O)=O)cc2)cn1 [Example 47] , please.
A: 141 to 142.5 °C

Q: Recorded melting point of NS(=O)(=O)c1ccc(-c2cc3c(cc2-c2ccc(F)cc2)OCO3)cc1 [Example 22] , please.
A: 191 to 192.5 °C

Q: Recorded melting point of NS(=O)(=O)c1ccc(-c2cc(F)c(F)cc2-c2ccc3c(c2)OCCO3)cc1 [Example 43] , please.
A: 107 to 108 °C

Q: Recorded melting point of NS(=O)(=O)c1ccc(-c2c(F)c(F)c(F)c(F)c2-c2ccc(F)cc2)cc1 [Example 15] , please.
A: 202 to 203 °C

###

Quick reference for melting point among some molecules

Example cases with answers are listed next.
>>> measured("CS(=O)(=O)c1ccc(-c2cc(F)c(F)cc2-c2ccc3c(c2)OCCO3)cc1")
"82 to 83 °C"
>>> measured("COc1ccc(-c2cc(F)c(F)cc2-c2ccc(S(C)(=O)=O)cc2)cc1OC")
"140 to 141 °C"
>>> measured("NS(=O)(=O)c1ccc(-c2ccccc2-c2ccc(F)c(Cl)c2)cc1")
"192.5 to 193.2 °C"
>>> measured("NS(=O)(=O)c1ccc(-c2ccccc2-c2ccc(Cl)cc2)cc1")
"206.2 to 207 °C"
>>> measured("COc1ccc(-c2cc(F)c(F)cc2-c2ccc(S(C)(=O)=O)cc2)cc1C")
"160.5 to 161.5 °C"
>>> measured("CS(=O)(=O)c1ccc(-c2cc(F)c(F)cc2-c2ccc(F)c(Cl)c2)cc1")
"172.2 to 172.5 °C"
>>> measured("CN(C)c1ccc(-c2cc(F)c(F)cc2-c2ccc(S(C)(=O)=O)cc2)cc1Cl")
"129 to 130 °C"
>>> measured("Cc1ccc(-c2cc(F)c(F)cc2-c2ccc(S(C)(=O)=O)cc2)cc1Cl")
"138 to 139 °C"

Q: Recorded melting point of "CN(C)c1ccc(-c2cc(F)c(F)cc2-c2ccc(S(N)(=O)=O)cc2)cc1Cl" , please.
A: 193 to 194 °C

Q: Recorded melting point of "CS(=O)(=O)c1ccc(-c2cc(F)c(F)cc2-c2ccc(F)cc2)cc1" , please.
A: 172.8 to 173.5 °C

Q: Recorded melting point of "COc1ccc(-c2cc(F)c(F)cc2-c2ccc(S(N)(=O)=O)cc2)cc1OC" , please.
A: 157 to 158 °C

###

reportedMetric: melting point

Example cases with answers are listed next.
>>> measured("NS(=O)(=O)c1ccc(-c2cc(F)c(F)cc2-c2ccc(F)cc2)cc1")
"190.2 to 191.5 °C"
>>> measured("Cc1ccc(-c2cc(F)c(F)cc2-c2ccc(S(C)(=O)=O)cc2)cc1")
"147 to 148 °C"
>>> measured("CS(=O)(=O)c1ccc(-c2cc(Cl)c(Cl)cc2-c2ccc(F)cc2)cc1")
"143.5 to 144.5 °C"
>>> measured("CS(=O)(=O)c1ccc(-c2cc(F)c(F)cc2-c2ccc3c(c2)OCO3)cc1")
"110 to 111 °C"
>>> measured("NS(=O)(=O)c1ccc(-c2cc(F)c(F)cc2-c2ccc(F)c(Cl)c2)cc1")
"162.5 to 162.8 °C"
>>> measured("COc1ccc(-c2cc(F)c(F)cc2-c2ccc(S(N)(=O)=O)cc2)cc1F")
"132.2 to 132.8 °C"

Q: Recorded melting point of "CS(=O)(=O)c1ccc(-c2ccccc2-c2ccc(F)c(Cl)c2)cc1" , please.
A: 179.5 to 181.1 °C

Q: Recorded melting point of "COc1ccc(-c2cc(F)c(F)cc2-c2ccc(S(C)(=O)=O)cc2)cc1Cl" , please.
A: 147.5 to 148.5 °C

###

Quick reference for melting point among some compounds

Q: Recorded melting point of "NS(=O)(=O)c1ccc(-c2ccccc2-c2ccc(C(F)(F)F)cc2)cc1" , please.
A: 187.5 to 187.8 °C

Q: Recorded melting point of "CS(=O)(=O)c1ccc(-c2cc3c(cc2-c2ccc(F)cc2)OCO3)cc1" , please.
A: 173 to 174 °C

Q: Recorded melting point of "NS(=O)(=O)c1ccc(-c2ccccc2-c2ccc(F)cc2)cc1" , please.
A: 187.3 to 188.2 °C

Q: Recorded melting point of "COc1ccc(-c2ccccc2-c2ccc(S(N)(=O)=O)cc2)cc1F" , please.
A: 143.5 to 145.5 °C (dec.)

Q: Recorded melting point of "CS(=O)(=O)c1ccc(-c2ccccc2-c2ccc(F)cc2)cc1" , please.
A: 178 to 179 °C
